tested on: subcutaneously implanted H69 human lung cancer; experiment: Ex vivo biodistribution by fiber-optic spectrofluorimetry (FOS) in tissues of mice bearing H69 tumors; conditions: ex vivo, 24 hours after i.v. administration, FOS
recordedEndpoint: Fluorescence intensity (a.u.), Tumor

>>> quantitativereadout("C[C@@H](O)[C@@H]1NC(=O)[C@H](CCCCN)NC(=O)[C@@H](Cc2c[nH]c3ccccc23)NC(=O)[C@H](Cc2c[nH]c3ccccc23)NC(=O)[C@H](Cc2ccccc2)NC(=O)[C@@H](NC(=O)[C@@H](Cc2ccccc2)NC(=O)CCCNC(=S)Nc2ccc3c(c2)C(=O)OC32c3ccc(O)cc3Oc3cc(O)ccc32)CSSCCN(CC(N)=O)C(=O)[C@H](Cc2ccccc2)NC1=O")
626

* * *

system: subcutaneously implanted H69 human lung cancer; assay: Ex vivo biodistribution by fiber-optic spectrofluorimetry (FOS) in tissues of mice bearing H69 tumors; details: ex vivo, 24 hours after i.v. administration, FOS
recordedEndpoint: Fluorescence intensity (a.u.), Lung

>>> result("C[C@@H](O)[C@@H]1NC(=O)[C@H](CCCCN)NC(=O)[C@@H](Cc2c[nH]c3ccccc23)NC(=O)[C@H](Cc2c[nH]c3ccccc23)NC(=O)[C@H](Cc2ccccc2)NC(=O)CN(C(=O)CCCNC(=O)c2ccc3c(c2)C(=O)OC32c3ccc(O)cc3Oc3cc(O)ccc32)CCSSCCN(CC(N)=O)C(=O)[C@H](Cc2ccccc2)NC1=O")
"25 ± 8 a.u."
>>> result("C[C@@H](O)[C@@H]1NC(=O)[C@H](CCCCN)NC(=O)[C@@H](Cc2c[nH]c3ccccc23)NC(=O)[C@H](Cc2c[nH]c3ccccc23)NC(=O)[C@H](Cc2ccccc2)NC(=O)CN(C(=O)[C@@H](Cc2ccccc2)NC(=O)CCCCNC(=S)Nc2ccc3c(c2)C(=O)OC32c3ccc(O)cc3Oc3cc(O)ccc32)CCSSCCN(CC(N)=O)C(=O)[C@H](Cc2ccccc2)NC1=O")
"27 ± 4 a.u."
>>> result("C[C@@H](O)[C@@H]1NC(=O)[C@H](CCCCN)NC(=O)[C@@H](Cc2c[nH]c3ccccc23)NC(=O)[C@H](Cc2c[nH]c3ccccc23)NC(=O)[C@H](Cc2ccccc2)NC(=O)[C@@H](NC(=O)[C@@H](Cc2ccccc2)NC(=O)CCCNC(=S)Nc2ccc3c(c2)C(=O)OC32c3ccc(O)cc3Oc3cc(O)ccc32)CSSCCN(CC(N)=O)C(=O)[C@H](Cc2ccccc2)NC1=O")
"70 ± 14 a.u."
>>> result("C[C@@H](O)[C@@H]1NC(=O)[C@H](CCCCN)NC(=O)[C@@H](Cc2c[nH]c3ccccc23)NC(=O)[C@H](Cc2c[nH]c3ccccc23)NC(=O)[C@H](Cc2ccccc2)NC(=O)CN(C(=O)[C@@H](Cc2ccccc2)NC(=O)CCNC(=O)c2ccc3c(c2)C(=O)OC32c3ccc(O)cc3Oc3cc(O)ccc32)CCSSCCN(CC(N)=O)C(=O)[C@H](Cc2ccccc2)NC1=O")
"40 ± 6 a.u."

* * *

test system: subcutaneously implanted H69 human lung cancer; assay: Ex vivo biodistribution by fiber-optic spectrofluorimetry (FOS) in tissues of mice bearing H69 tumors; conditions: ex vivo, 24 hours after i.v. administration, FOS
recordedEndpoint: Fluorescence intensity (a.u.), Liver

>>> quantitativereadout("C[C@@H](O)[C@@H]1NC(=O)[C@H](CCCCN)NC(=O)[C@@H](Cc2c[nH]c3ccccc23)NC(=O)[C@H](Cc2c[nH]c3ccccc23)NC(=O)[C@H](Cc2ccccc2)NC(=O)CN(C(=O)[C@@H](Cc2ccccc2)NC(=O)CCNC(=S)Nc2ccc3c(c2)C(=O)OC32c3ccc(O)cc3Oc3cc(O)ccc32)CCSSCCN(CC(N)=O)C(=O)[C@H](Cc2ccccc2)NC1=O")
17
>>> quantitativereadout("C[C@@H](O)[C@@H]1NC(=O)[C@H](CCCCN)NC(=O)[C@@H](Cc2c[nH]c3ccccc23)NC(=O)[C@H](Cc2c[nH]c3ccccc23)NC(=O)[C@H](Cc2ccccc2)NC(=O)CN(C(=O)[C@@H](Cc2ccccc2)NC(=O)CCNC(=O)c2ccc3c(c2)C(=O)OC32c3ccc(O)cc3Oc3cc(O)ccc32)CCSSCCN(CC(N)=O)C(=O)[C@H](Cc2ccccc2)NC1=O")
12
>>> quantitativereadout("C[C@@H](O)[C@@H]1NC(=O)[C@H](CCCCN)NC(=O)[C@@H](Cc2c[nH]c3ccccc23)NC(=O)[C@H](Cc2c[nH]c3ccccc23)NC(=O)[C@H](Cc2ccccc2)NC(=O)CN(C(=O)[C@@H](Cc2ccccc2)NC(=O)CCCCNC(=S)Nc2ccc3c(c2)C(=O)OC32c3ccc(O)cc3Oc3cc(O)ccc32)CCSSCCN(CC(N)=O)C(=O)[C@H](Cc2ccccc2)NC1=O")
5
>>> quantitativereadout("C[C@@H](O)[C@@H]1NC(=O)[C@H](CCCCN)NC(=O)[C@@H](Cc2c[nH]c3ccccc23)NC(=O)[C@H](Cc2c[nH]c3ccccc23)NC(=O)[C@H](Cc2ccccc2)NC(=O)[C@@H](NC(=O)[C@@H](Cc2ccccc2)NC(=O)CCCNC(=S)Nc2ccc3c(c2)C(=O)OC32c3ccc(O)cc3Oc3cc(O)ccc32)CSSCCN(CC(N)=O)C(=O)[C@H](Cc2ccccc2)NC1=O")
13
>>> quantitativereadout("C[C@@H](O)[C@@H]1NC(=O)[C@H](CCCCN)NC(=O)[C@@H](Cc2c[nH]c3ccccc23)NC(=O)[C@H](Cc2c[nH]c3ccccc23)NC(=O)[C@H](Cc2ccccc2)NC(=O)CN(C(=O)CCCNC(=O)c2ccc3c(c2)C(=O)OC32c3ccc(O)cc3Oc3cc(O)ccc32)CCSSCCN(CC(N)=O)C(=O)[C@H](Cc2ccccc2)NC1=O")
10

* * *

tested on: subcutaneously implanted H69 human lung cancer; experiment: Ex vivo biodistribution by fiber-optic spectrofluorimetry (FOS) in tissues of mice bearing H69 tumors; details: ex vivo, 24 hours after i.v. administration, FOS
recordedEndpoint: Fluorescence intensity (a.u.), Skin

>>> quantitativereadout("C[C@@H](O)[C@@H]1NC(=O)[C@H](CCCCN)NC(=O)[C@@H](Cc2c[nH]c3ccccc23)NC(=O)[C@H](Cc2c[nH]c3ccccc23)NC(=O)[C@H](Cc2ccccc2)NC(=O)CN(C(=O)[C@@H](Cc2ccccc2)NC(=O)CCCCNC(=S)Nc2ccc3c(c2)C(=O)OC32c3ccc(O)cc3Oc3cc(O)ccc32)CCSSCCN(CC(N)=O)C(=O)[C@H](Cc2ccccc2)NC1=O")
116

* * *

test system: subcutaneously implanted H69 human lung cancer; test: Ex vivo biodistribution by fiber-optic spectrofluorimetry (FOS) in tissues of mice bearing H69 tumors; conditions: ex vivo, 24 hours after i.v. administration, FOS
recordedEndpoint: Fluorescence intensity (a.u.), Lung

>>> result("C[C@@H](O)[C@@H]1NC(=O)[C@H](CCCCN)NC(=O)[C@@H](Cc2c[nH]c3ccccc23)NC(=O)[C@H](Cc2c[nH]c3ccccc23)NC(=O)[C@H](Cc2ccccc2)NC(=O)CN(C(=O)[C@@H](Cc2ccccc2)NC(=O)CCNC(=S)Nc2ccc3c(c2)C(=O)OC32c3ccc(O)cc3Oc3cc(O)ccc32)CCSSCCN(CC(N)=O)C(=O)[C@H](Cc2ccccc2)NC1=O")
"37 ± 6 a.u."

* * *

tested on: subcutaneously implanted H69 human lung cancer; assay: Ex vivo biodistribution by fiber-optic spectrofluorimetry (FOS) in tissues of mice bearing H69 tumors; conditions: ex vivo, 24 hours after i.v. administration, FOS
recordedEndpoint: Fluorescence intensity (a.u.), Spleen

>>> quantitativereadout("C[C@@H](O)[C@@H]1NC(=O)[C@H](CCCCN)NC(=O)[C@@H](Cc2c[nH]c3ccccc23)NC(=O)[C@H](Cc2c[nH]c3ccccc23)NC(=O)[C@H](Cc2ccccc2)NC(=O)CN(C(=O)[C@@H](Cc2ccccc2)NC(=O)CCCCNC(=S)Nc2ccc3c(c2)C(=O)OC32c3ccc(O)cc3Oc3cc(O)ccc32)CCSSCCN(CC(N)=O)C(=O)[C@H](Cc2ccccc2)NC1=O [Compound 70]")
2
>>> quantitativereadout("C[C@@H](O)[C@@H]1NC(=O)[C@H](CCCCN)NC(=O)[C@@H](Cc2c[nH]c3ccccc23)NC(=O)[C@H](Cc2c[nH]c3ccccc23)NC(=O)[C@H](Cc2ccccc2)NC(=O)CN(C(=O)[C@@H](Cc2ccccc2)NC(=O)CCNC(=S)Nc2ccc3c(c2)C(=O)OC32c3ccc(O)cc3Oc3cc(O)ccc32)CCSSCCN(CC(N)=O)C(=O)[C@H](Cc2ccccc2)NC1=O [Compound 62]")
4
>>> quantitativereadout("C[C@@H](O)[C@@H]1NC(=O)[C@H](CCCCN)NC(=O)[C@@H](Cc2c[nH]c3ccccc23)NC(=O)[C@H](Cc2c[nH]c3ccccc23)NC(=O)[C@H](Cc2ccccc2)NC(=O)CN(C(=O)[C@@H](Cc2ccccc2)NC(=O)CCNC(=O)c2ccc3c(c2)C(=O)OC32c3ccc(O)cc3Oc3cc(O)ccc32)CCSSCCN(CC(N)=O)C(=O)[C@H](Cc2ccccc2)NC1=O [Compound 64]")
4
>>> quantitativereadout("C[C@@H](O)[C@@H]1NC(=O)[C@H](CCCCN)NC(=O)[C@@H](Cc2c[nH]c3ccccc23)NC(=O)[C@H](Cc2c[nH]c3ccccc23)NC(=O)[C@H](Cc2ccccc2)NC(=O)CN(C(=O)CCCNC(=O)c2ccc3c(c2)C(=O)OC32c3ccc(O)cc3Oc3cc(O)ccc32)CCSSCCN(CC(N)=O)C(=O)[C@H](Cc2ccccc2)NC1=O [Compound 48]")
7
>>> quantitativereadout("C[C@@H](O)[C@@H]1NC(=O)[C@H](CCCCN)NC(=O)[C@@H](Cc2c[nH]c3ccccc23)NC(=O)[C@H](Cc2c[nH]c3ccccc23)NC(=O)[C@H](Cc2ccccc2)NC(=O)[C@@H](NC(=O)[C@@H](Cc2ccccc2)NC(=O)CCCNC(=S)Nc2ccc3c(c2)C(=O)OC32c3ccc(O)cc3Oc3cc(O)ccc32)CSSCCN(CC(N)=O)C(=O)[C@H](Cc2ccccc2)NC1=O [Compound 86]")
7

Origin of the recorded values: patent US7700717B2
